Study System: Fructose-bisphosphate aldolase (Mycobacterium tuberculosis (strain ATCC 25618 / H37Rv))
Procedure Summary: Mtb FBA enzyme inhibitors, primary screen, biochemical, fluorescence, strain H37Rv (AID 588726);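 note: 0% = vehicle and 100% = reference inhibitor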
Recorded Conditions: purified M. tuberculosis FBA, fluorescence read-out, at 1 µM, hits give high values
Screen size: about 360,000 compounds; about 8,200 (2.3%) were called active. The full list was thinned out, with actives kept by preference.
Give measured inhibition for each item. Keep answers brief.
Numbers only, in %.

Solved cases (8 shown):
- CN(C)c1ccc(/C=N/NC(=O)c2ccc(Cn3cc(Br)cn3)o2)cc1: 0.83
- Cn1c(C(=O)NCCN2CCc3ccccc3C2)cc2c(=O)[nH]c3ccccc3c21: 5.1
- O=C1CC2(CCN(C(=O)COc3ccc(F)cc3)CC2)Oc2ccccc21: 6.06
- CCCC/C=C/c1cccc2nncn12: 27.5
- COc1ccc(-n2c(C)nn(CC3CC3)c2=O)cc1: -1.25
- O=C(O)c1ccccc1-c1cccc2nncn12: 4.68
- COc1ccc(NC(=O)C2(C)Cc3c(-c4cccc(NC(C)=O)c4)ccnc3O2)cc1 (stereo unspecified): 5.4
- Cc1ccc(C2=Nc3c(ccc4ccccc34)C(c3ccncc3)=NN2)cc1: 1.27

Fill in inhibition for each of the 3 compounds listed.
1. COc1ccc(/C=N/NC(=O)C(C)N(c2ccc(OC)cc2)S(C)(=O)=O)cc1 (stereo unspecified)
2. O=C(NCCN1CCN(Cc2ccccc2)CC1)c1cc2c(=O)[nH]c3ccccc3c2s1
3. O=C1CC2(CCCCC2)Oc2ccc(OCC(=O)N3CCOCC3)cc21

[-1.16, 47.8, 49.5]

* * *

Study System: Fructose-bisphosphate aldolase (Mycobacterium tuberculosis (strain ATCC 25618 / H37Rv)) (UniProt P9WQA3)
Sequence (P9WQA3 whole entry, looked up): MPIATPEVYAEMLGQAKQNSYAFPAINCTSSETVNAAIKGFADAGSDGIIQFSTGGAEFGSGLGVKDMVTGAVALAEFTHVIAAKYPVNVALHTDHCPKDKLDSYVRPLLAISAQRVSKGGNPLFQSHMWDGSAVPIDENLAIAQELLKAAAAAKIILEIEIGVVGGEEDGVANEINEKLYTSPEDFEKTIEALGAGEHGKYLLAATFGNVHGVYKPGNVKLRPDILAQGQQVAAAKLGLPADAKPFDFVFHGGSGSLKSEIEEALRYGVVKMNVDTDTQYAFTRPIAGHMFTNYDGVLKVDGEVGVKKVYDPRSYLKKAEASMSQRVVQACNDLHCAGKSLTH
Procedure Summary: Mtb FBA enzyme inhibitors, primary screen, biochemical, fluorescence, strain H37Rv (AID 588726);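 note: 0% = vehicle and 100% = reference inhibitor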
Recorded Conditions: purified M. tuberculosis FBA, fluorescence read-out, at 1 µM
Among all 360,000 compounds or so, about 8,200 (2.3%) were called active. Rule as the data show it: active = inhibition above about 27%; inactive = the rest. Only a selection was taken, and actives are over-represented in it overall.
Form entry, call: pick from 1.0 = active, 0.0 = inactive

For orientation, consider the following solved cases.
- CCOc1ccccc1C1CC(c2ccccc2)Nc2nc(N)nn21 (stereo unspecified): 1.0
- FC(F)Oc1ccccc1C1CC(c2ccc(Br)s2)Nc2ncnn21 (stereo unspecified): 0.0
- Nn1c(Cc2cccc3ccccc23)nnc1SCC(=O)N1CC(=O)Nc2ccccc21: 0.0
- CSc1c(SCc2ccccc2)cnn(Cc2ccccc2)c1=O: 0.0
- CC(C)C1Nc2c(C(=O)O)cccc2C(Nc2ccccc2C(=O)O)C1(C)C (stereo unspecified): 1.0

Tell me the assay call for NS(=O)(=O)c1ccc(CCNC(=O)CNC(=O)Cc2ccccc2)cc1 please. 0.0

Called result for Cc1cc(NC(=O)/C=C/C(=O)N(CC(=O)NC2CCCC2)c2ccc(F)cc2)no1 0.0

Please share the test call associated with O=C(COc1ccc(Cl)cc1Cl)NCCCNC(=O)c1cnccn1 . 0.0

Hey, what did the test say about CC[C@@H]1Cc2cc(O)ccc2C2=C1c1ccc(O)cc1C[C@H]2CC ? 1.0

Look up the recorded call for CCOc1ccc(S(=O)(=O)NCCSc2ccccc2)cc1 in this test. 0.0

Fill in: this test's call for Cc1cccc(C(=O)C(O)(c2ccccc2)C2CCCCC2=O)c1 (stereo unspecified) is ___ 0.0
